# targetOfAssay: T1, RBFOX1 RRM (Homo sapiens, UniProt Q9NWB1 109-208)
# T1 sequence: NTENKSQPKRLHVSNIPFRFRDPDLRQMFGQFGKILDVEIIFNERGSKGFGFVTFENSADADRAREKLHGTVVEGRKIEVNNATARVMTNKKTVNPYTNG
# runDescription: EMSA; HiTS-Eq, 1 nM pool, 10 min; buffer printed only for the single-RNA assays: 10 mM Tris pH 7.5, 150 mM NaCl, 3.4 mM EDTA, 0.001% NP-40, 30 C
# testConditions: tags: His6 N-terminal (pET28a); label: 5' 32P
Whole data set: some 16,000 sequences, median “ka relative to ugcaugu” near 0.0091, cut for the highest 2% near 0.032. The list comes from a sample in which the highest values are over-represented; it also holds close analogues and randomly drawn sequences.

{"binder": "GCAAACU (DNA:RNA) RNA: GGGAGACCGGAAUUCAGAUUGUCCGCAAACUUUAAAUCCCGUCGUAGCCACCA DNA 1: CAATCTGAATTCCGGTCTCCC DNA 2: TGGTGGCTACGACGGGATT", "binding signal": "0.00432 KA relative to UGCAUGU"}
{"binder": "UCCUGCG (DNA:RNA) RNA: GGGAGACCGGAAUUCAGAUUGUCCUCCUGCGUUAAAUCCCGUCGUAGCCACCA DNA 1: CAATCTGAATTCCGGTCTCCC DNA 2: TGGTGGCTACGACGGGATT", "binding signal": "0.0166 KA relative to UGCAUGU"}
{"binder": "GGGUGGU (DNA:RNA) RNA: GGGAGACCGGAAUUCAGAUUGUCCGGGUGGUUUAAAUCCCGUCGUAGCCACCA DNA 1: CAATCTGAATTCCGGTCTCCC DNA 2: TGGTGGCTACGACGGGATT", "binding signal": "0.0199 KA relative to UGCAUGU"}
{"binder": "UGUUCCG (DNA:RNA) RNA: GGGAGACCGGAAUUCAGAUUGUCCUGUUCCGUUAAAUCCCGUCGUAGCCACCA DNA 1: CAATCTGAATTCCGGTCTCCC DNA 2: TGGTGGCTACGACGGGATT", "binding signal": "0.0186 KA relative to UGCAUGU"}
{"binder": "UGCGUCC (DNA:RNA) RNA: GGGAGACCGGAAUUCAGAUUGUCCUGCGUCCUUAAAUCCCGUCGUAGCCACCA DNA 1: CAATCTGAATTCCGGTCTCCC DNA 2: TGGTGGCTACGACGGGATT", "binding signal": "0.0132 KA relative to UGCAUGU"}
{"binder": "GGAAGUG (DNA:RNA) RNA: GGGAGACCGGAAUUCAGAUUGUCCGGAAGUGUUAAAUCCCGUCGUAGCCACCA DNA 1: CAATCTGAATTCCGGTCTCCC DNA 2: TGGTGGCTACGACGGGATT", "binding signal": "0.0211 KA relative to UGCAUGU"}
{"binder": "UGUGUCC (DNA:RNA) RNA: GGGAGACCGGAAUUCAGAUUGUCCUGUGUCCUUAAAUCCCGUCGUAGCCACCA DNA 1: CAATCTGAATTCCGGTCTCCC DNA 2: TGGTGGCTACGACGGGATT", "binding signal": "0.0226 KA relative to UGCAUGU"}
{"binder": "GCUGUUA (DNA:RNA) RNA: GGGAGACCGGAAUUCAGAUUGUCCGCUGUUAUUAAAUCCCGUCGUAGCCACCA DNA 1: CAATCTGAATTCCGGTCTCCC DNA 2: TGGTGGCTACGACGGGATT", "binding signal": "0.0113 KA relative to UGCAUGU"}
{"binder": "GGGGUGG (DNA:RNA) RNA: GGGAGACCGGAAUUCAGAUUGUCCGGGGUGGUUAAAUCCCGUCGUAGCCACCA DNA 1: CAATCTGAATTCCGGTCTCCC DNA 2: TGGTGGCTACGACGGGATT", "binding signal": "0.0333 KA relative to UGCAUGU"}
